The values you see were collected from the kinase profiling compilation of Christmann-Franck et al. (2016).

target-of-assay: CDK7 (human) (UniProt P50613)
Sequence (P50613 whole entry, looked up): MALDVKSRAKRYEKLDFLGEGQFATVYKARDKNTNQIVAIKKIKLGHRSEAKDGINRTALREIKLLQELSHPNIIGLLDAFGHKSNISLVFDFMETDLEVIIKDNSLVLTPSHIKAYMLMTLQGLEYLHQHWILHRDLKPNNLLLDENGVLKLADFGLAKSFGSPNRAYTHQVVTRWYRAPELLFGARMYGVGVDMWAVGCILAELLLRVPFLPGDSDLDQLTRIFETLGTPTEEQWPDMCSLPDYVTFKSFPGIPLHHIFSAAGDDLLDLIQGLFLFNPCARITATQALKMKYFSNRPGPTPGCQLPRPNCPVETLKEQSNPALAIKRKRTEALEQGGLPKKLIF
assay-remarks: KINOMEscan competition binding
test-parameters: compound 10.0 µM
recorded-metric: kinase still bound, per cent of control

Consider the reported kinase still bound, per cent of control for these compounds:
{"columns": ["smiles-data", "target-of-assay", "kinase still bound, per cent of control"],
 "data": [
  ["O=C1Nc2ccc(I)cc2/C1=C/c1cc(Br)c(O)c(Br)c1", "CDK7 (human) (UniProt P50613)", "67%"],
  ["CCN1CCN(Cc2ccc(Nc3ncc4c(n3)N(C)c3ccccc3C(=O)N4C)cc2C(F)(F)F)CC1", "CDK7 (human) (UniProt P50613)", "4%"],
  ["C=CC(=O)Nc1cccc(Nc2nc(N[C@H]3CC[C@H](N(C)C)CC3)nc3c2ncn3C(C)C)c1", "CDK7 (human) (UniProt P50613)", "15%"],
  ["OCCCNc1cc(-c2ccnc(Nc3cccc(Cl)c3)n2)ccn1", "CDK7 (human) (UniProt P50613)", "100%"]
]}

Attention now shifts to the item below.
So what's the measured kinase still bound, per cent of control for this one? `CCC(=O)N1CCN(c2ccc(-n3c(=O)ccc4cnc5ccc(-c6cnc7ccccc7c6)cc5c43)cc2C(F)(F)F)CC1`
57%
